Where these numbers come from: patent US20250051277A1

Format: physicochemical
Conditions: SGF with pepsin, pH 1.5, 37° C., 0.5 mM; time 1 h
measured.parameter: Condition 1 Conversion (%)

compound="COc1ccc([C@@]23CCC(=NNC(=O)CC(CC(=O)O)CC(C)C)C[C@@H]2N(C)CC3)cc1OC (some centres unmarked)" units_symbol=% experimental_result=97.72
compound=COc1ccc([C@@]23CCC(OC(=O)c4ccc(N(C)C)cc4)=C[C@@H]2N(C)CC3)cc1OC units_symbol=% experimental_result=0
compound=COc1ccc([C@@]23CC/C(=N\NC(=O)CCC(=O)O)C[C@@H]2N(C)CC3)cc1OC units_symbol=% experimental_result=100
compound=COc1ccc([C@@]23CCC(=NOCCO)C[C@@H]2N(C)CC3)cc1OC units_symbol=% experimental_result=0
compound=COc1ccc([C@@]23CCC(=NOCc4cccnc4)C[C@@H]2N(C)CC3)cc1OC units_symbol=% experimental_result=0
compound=COc1ccc([C@@]23CCC(=NNC(=O)COc4ccccc4)C[C@@H]2N(C)CC3)cc1OC units_symbol=% experimental_result=100
compound=C=C(C)C(=O)OC1=C[C@@H]2N(C)CC[C@]2(c2ccc(OC)c(OC)c2)CC1 units_symbol=% experimental_result=0
compound=COc1ccc([C@@]23CCC(=NNC(C)=O)C[C@@H]2N(C)CC3)cc1OC units_symbol=% experimental_result=100
